biological target: Melanocortin receptor 4 (Homo sapiens); assay: Binding affinity towards human melanocortin receptor hMC4R by using radioligand NDP-MSH
Sequence (P32245 whole entry): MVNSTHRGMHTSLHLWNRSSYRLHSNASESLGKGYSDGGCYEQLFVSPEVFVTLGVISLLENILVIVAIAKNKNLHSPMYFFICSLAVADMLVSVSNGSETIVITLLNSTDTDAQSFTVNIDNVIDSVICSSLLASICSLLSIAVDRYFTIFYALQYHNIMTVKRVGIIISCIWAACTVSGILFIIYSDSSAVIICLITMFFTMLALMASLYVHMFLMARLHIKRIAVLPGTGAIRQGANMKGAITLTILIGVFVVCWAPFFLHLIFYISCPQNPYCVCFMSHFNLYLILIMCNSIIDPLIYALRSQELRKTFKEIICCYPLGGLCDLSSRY
pIC50: −log10 of the molar value.
property-measured: pIC50

The following compounds have reported results that may help.
compound=CCCC(=O)N[C@@H](Cc1cnc[nH]1)C(=O)N[C@H](Cc1ccccc1)C(=O)N[C@@H](CCCNC(=N)N)C(=O)N[C@@H](Cc1c[nH]c2ccccc12)C(=O)NCC(N)=O value_measured=6.82
compound="CCCCC(=O)NC1(C(=O)NC(Cc2ccccc2)C(=O)N[C@@H](CCCN=C(N)N)C(=O)N[C@@H](Cc2c[nH]c3ccccc23)C(=O)NCC(N)=O)CCc2c(Br)cccc2C1 (single isomer, unassigned)" value_measured=6.70

1. CCCCC(=O)NC1(C(=O)N[C@H](Cc2ccccc2)C(=O)N[C@@H](CCCNC(=N)N)C(=O)N[C@@H](Cc2c[nH]c3ccccc23)C(=O)NCC(N)=O)CCc2c(cccc2N(C)C)C1 (single isomer, unassigned; isomer 2)
2. CCCCC(=O)NC1(C(=O)N[C@H](Cc2ccccc2)C(=O)N[C@@H](CCCNC(=N)N)C(=O)N[C@@H](Cc2c[nH]c3ccccc23)C(=O)NCC(N)=O)CCc2c(cccc2N(C)C)C1 (single isomer, unassigned; isomer 1)
stdin: Short answer wanted: higher pIC50, 1 or 2 ? Please respond with the label that marks your chosen entry.
stdout: 2
(2: 7.60, 1: 6.82)

---

biological target: Melanocortin receptor 4 (Homo sapiens); assay: Percent inhibition of human melanocortin receptor hMC4R at the concentration of 50 uM
property-measured: inhibition (%)

The following molecules have reported results that may help.
molecule="CCCCC(=O)NC1(C(=O)NC(Cc2ccccc2)C(=O)N[C@@H](CCCN=C(N)N)C(=O)N[C@@H](Cc2c[nH]c3ccccc23)C(=O)NCC(N)=O)CCc2cccc(Br)c2C1 (single isomer, unassigned)" unit_name=% value_measured=0
molecule="CCCCC(=O)NC1(C(=O)NC(Cc2ccccc2)C(=O)N[C@@H](CCCN=C(N)N)C(=O)N[C@@H](Cc2c[nH]c3ccccc23)C(=O)NCC(N)=O)CCc2cc(Br)ccc2C1 (single isomer, unassigned; form 1)" unit_name=% value_measured=60
molecule="CCCCC(=O)NC1(C(=O)NC(Cc2ccccc2)C(=O)N[C@@H](CCCN=C(N)N)C(=O)N[C@@H](Cc2c[nH]c3ccccc23)C(=O)NCC(N)=O)CCc2ccc(Br)cc2C1 (single isomer, unassigned)" unit_name=% value_measured=40

1. CCCCC(=O)NC1(C(=O)NC(Cc2ccccc2)C(=O)N[C@@H](CCCN=C(N)N)C(=O)N[C@@H](Cc2c[nH]c3ccccc23)C(=O)NCC(N)=O)CCc2cc(Br)ccc2C1 (single isomer, unassigned; form 2)
2. CCCCC(=O)NC1(C(=O)N[C@H](Cc2ccccc2)C(=O)N[C@@H](CCCN=C(N)N)C(=O)N[C@@H](Cc2c[nH]c3ccccc23)C(=O)NCC(N)=O)CCc2cccc(Br)c2C1 (single isomer, unassigned; isomer 2)
stdin: Short answer wanted: higher inhibition, 1 or 2 ? Please respond with the label that marks your chosen entry.
stdout: 1

---

target: Melanocyte-stimulating hormone receptor (Homo sapiens, UniProt Q01726); assay: Agonist activity against human melanocortin receptor hMC1R; format: functional
Sequence (Q01726 whole entry): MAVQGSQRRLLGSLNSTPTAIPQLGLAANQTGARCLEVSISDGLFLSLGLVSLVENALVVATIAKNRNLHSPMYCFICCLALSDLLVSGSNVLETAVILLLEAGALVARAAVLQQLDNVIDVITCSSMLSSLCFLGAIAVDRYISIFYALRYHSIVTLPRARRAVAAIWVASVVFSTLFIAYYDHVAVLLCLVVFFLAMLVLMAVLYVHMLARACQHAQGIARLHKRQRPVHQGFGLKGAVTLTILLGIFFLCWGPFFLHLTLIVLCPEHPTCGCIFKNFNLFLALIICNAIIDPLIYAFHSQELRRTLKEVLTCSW
property-measured: EC50 (nM)

molecule="CCCC(=O)N[C@@H](C)C(=O)NC(Cc1ccccc1)C(=O)N[C@@H](CCCN=C(N)N)C(=O)N[C@@H](Cc1c[nH]c2ccccc12)C(=O)NCC(N)=O (single isomer, unassigned)" assay_system="Melanocyte-stimulating hormone receptor (Homo sapiens, UniProt Q01726)" value_measured=230
molecule="CCCCC(=O)NC1(C(=O)NC(Cc2ccccc2)C(=O)N[C@@H](CCCNC(=N)N)C(=O)N[C@@H](Cc2c[nH]c3ccccc23)C(=O)NCC(N)=O)CCc2c(Cl)cccc2C1 (single isomer, unassigned)" assay_system="Melanocyte-stimulating hormone receptor (Homo sapiens, UniProt Q01726)" value_measured=1400
molecule="CCCCC(=O)NC1(C(=O)N[C@H](Cc2ccccc2)C(=O)N[C@@H](CCCNC(=N)N)C(=O)N[C@@H](Cc2c[nH]c3ccccc23)C(=O)NCC(N)=O)CCc2c(cccc2N(C)C)C1 (single isomer, unassigned; isomer 1)" assay_system="Melanocyte-stimulating hormone receptor (Homo sapiens, UniProt Q01726)" value_measured=940

I. CCCCC(=O)NC1(C(=O)NC(Cc2ccccc2)C(=O)N[C@@H](CCCNC(=N)N)C(=O)N[C@@H](Cc2c[nH]c3ccccc23)C(=O)NCC(N)=O)CCc2c(cccc2OCC)C1 (single isomer, unassigned)
II. CCCCC(=O)NC1(C(=O)NC(Cc2ccccc2)C(=O)N[C@@H](CCCN=C(N)N)C(=O)N[C@@H](Cc2c[nH]c3ccccc23)C(=O)NCC(N)=O)CCc2cccc(Br)c2C1 (single isomer, unassigned)
III. CCCC(=O)N[C@@H](Cc1cnc[nH]1)C(=O)N[C@H](Cc1ccccc1)C(=O)N[C@@H](CCCNC(=N)N)C(=O)N[C@@H](Cc1c[nH]c2ccccc12)C(=O)NCC(N)=O
IV. CCCCC(=O)NC1(C(=O)NC(Cc2ccccc2)C(=O)N[C@@H](CCCNC(=N)N)C(=O)N[C@@H](Cc2c[nH]c3ccccc23)C(=O)NCC(N)=O)CCc2c(CC)cccc2C1 (single isomer, unassigned)
V. CCCC(=O)N[C@@]1(C(=O)N[C@H](Cc2ccccc2)C(=O)N[C@@H](CCCN=C(N)N)C(=O)N[C@@H](Cc2c[nH]c3ccccc23)C(=O)NCC(N)=O)CCc2ccccc2C1 (stereo in doubt; form 1)
stdin: Hey, quick one: sort these by EC50, largest value first please. # format: label list in the order the request specifies
stdout: V, II, I, IV, III
(V: 4380 nM, II: 1710 nM, I: 990 nM, IV: 195 nM, III: 10 nM)
